assay: Bidirectional transport across the Caco-2 cell monolayer (Papp, efflux ratio, mass balance); conditions: human, Caco-2, pH 7.4
Known Papp B→A at 90 min, 50 μM of a selection of molecules
measurement-type: Papp B→A at 90 min, 50 μM

[[record]]
molecule = "COc1ccc(C2=CC(=O)OC2Cc2ccc(O)cc2)c(OC2OC(CO)C(O)C(O)C2O)c1 (racemic) [Compound 8, (±)-puerol B-2″-O-glucopyranoside]"
measurement = "1.03 ×10⁻⁶ cm/s"

[[record]]
molecule = "O=c1c(-c2ccc(O)c(O)c2)coc2c(C3OC(CO)C(O)C(O)C3O)c(O)ccc12 (stereo not drawn) [Compound 1, 3′-hydroxypuerarin]"
measurement = "0.29 ×10⁻⁶ cm/s"

[[record]]
molecule = "COc1cc(-c2coc3c(C4OC(CO)C(O)C(O)C4O)c(O)ccc3c2=O)ccc1O (stereo not drawn)"
measurement = "0.47 ×10⁻⁶ cm/s"

